inhibition at 10 µM values, listed per item
- targetEntity: B1R receptor of the rat (Rattus norvegicus)
- Construct: host or cells: CHO K1 cells (Chinese hamster ovary), stably transfected
- experimentalProtocol: Functional study on the bradykinin receptor 1 (B1R), FLIPR Ca2+ assay, rB1R cells
- Format: cell-based
- testSettings: CHO-K1, test substance 10 μM, agonist Des-Arg9-bradykinin 100 nM, % inhibition compared with the maximum achievable inhibition, read-out: B1R Antagonism, rat [10 μM] % Inhibition

{"columns": ["molecule", "inhibition at 10 µM, %"],
 "data": [
  ["O=C(COCC1CCCCN1S(=O)(=O)c1cccc(C(F)(F)F)c1)N1CCCCC1c1cncc(Br)c1 (stereo not shown)", 52.8],
  ["COc1cc(C)c(S(=O)(=O)N2CCCCC2COCC(=O)N2CCN(C3CCC(C(F)(F)F)CC3)CC2)c(C)c1 (stereo not shown)", 98.2],
  ["COc1cc(C)c(S(=O)(=O)N2CCCCC2COCC(=O)N2CCN(c3ccc(F)cc3)CC2)c(C)c1 (stereo not shown)", 95.5],
  ["COc1cc(C)c(S(=O)(=O)N2CCCCC2COCC(=O)NCc2ccc(CN3CCOCC3)cc2)c(C)c1 (stereo not shown)", 107],
  ["COc1cc(C)c(S(=O)(=O)N2CCCC2COCC(=O)N(C)[C@H]2CCN(Cc3ccccc3)C2)c(C)c1 (stereo partly shown)", 100],
  ["COc1cc(C)c(S(=O)(=O)N2CCCCC2COCC(=O)NCc2cccnc2)c(C)c1 (stereo not shown)", 95.9],
  ["O=C(COCC1CCCN1S(=O)(=O)c1c(Cl)cccc1Cl)N1CCN(c2ccc(Cl)c(Cl)c2)CC1 (stereo not shown)", 103]
]}

* * *

- targetEntity: human B1R receptor (Homo sapiens, UniProt P46663)
- Construct: host or cells: CHO K1 cells (Chinese hamster ovary), stably transfected
- Sequence (P46663 1-353): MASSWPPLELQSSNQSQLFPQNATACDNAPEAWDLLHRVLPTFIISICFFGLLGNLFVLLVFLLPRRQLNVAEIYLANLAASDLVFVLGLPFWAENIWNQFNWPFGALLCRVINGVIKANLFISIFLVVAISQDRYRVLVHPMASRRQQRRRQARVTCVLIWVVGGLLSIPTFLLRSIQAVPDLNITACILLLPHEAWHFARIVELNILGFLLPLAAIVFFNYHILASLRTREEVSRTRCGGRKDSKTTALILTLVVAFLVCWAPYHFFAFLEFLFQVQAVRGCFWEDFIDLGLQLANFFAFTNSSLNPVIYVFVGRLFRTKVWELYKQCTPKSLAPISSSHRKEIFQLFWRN
- experimentalProtocol: Functional study on the bradykinin receptor 1 (B1R), FLIPR Ca2+ assay, hB1R cells
- Format: cell-based
- testSettings: CHO-K1, test substance 10 μM, agonist Lys-Des-Arg9-bradykinin 0.5 nM, % inhibition compared with the maximum achievable inhibition, read-out: B1R Antagonism, human [10 μM] % Inhibition
Where a name gives a salt, the structure may show the parent alone.

{"columns": ["compound", "inhibition at 10 µM (%)"],
 "data": [
  ["COc1cc(C)c(S(=O)(=O)N2CCCC2COCC(=O)NC2CCN(Cc3ccccc3)CC2)c(C)c1 (stereo not drawn)", 94.5],
  ["COc1cc(C)c(S(=O)(=O)N2CCCCC2COCC(=O)N2CCC(N3CCc4cc(F)ccc4C3)CC2)c(C)c1 (stereo not drawn)", 102],
  ["CN1CCN(C2CCN(C(=O)COCC3CCCCN3S(=O)(=O)c3ccc(Cl)c(Cl)c3)CC2)CC1 (stereo not drawn)", 84.7],
  ["COc1ccc(N2CCN(C(=O)COCC3CCCCN3S(=O)(=O)c3ccc(Cl)c(Cl)c3)CC2)cc1 (stereo not drawn)", 43.7],
  ["CN1CCC(N2CCN(C(=O)COCC3CCCN3S(=O)(=O)c3ccc(Cl)c(Cl)c3)CC2)CC1 (stereo not drawn)", 59.6],
  ["COc1cc(C)c(S(=O)(=O)N2CCCCC2COCC(=O)N2CCN(c3nc4ccccc4s3)CC2)c(C)c1 (stereo not drawn)", 73.3],
  ["COc1cc(C)c(S(=O)(=O)N2CCCCC2COCC(=O)N2CCN(c3ccc(F)cc3)CC2)c(C)c1 (stereo not drawn)", 103],
  ["COc1cc(C)c(S(=O)(=O)N2CCCC2COCC(=O)N2CCN(CCN(C(C)C)C(C)C)CC2)c(C)c1 (stereo not drawn)", 104],
  ["N#CCCN1CCN(C(=O)COCC2CCCCN2S(=O)(=O)c2c(Cl)cccc2Cl)CC1 (stereo not drawn)", 98.3],
  ["COc1cc(C)c(S(=O)(=O)N2CCCC2COCC(=O)N2CCCCC2Cc2ccccn2)c(C)c1 (stereo not drawn)", 90.8],
  ["COc1cc(C)c(S(=O)(=O)N2CCCCC2COCC(=O)N(Cc2ccccc2)c2cccc(C)n2)c(C)c1 (stereo not drawn)", 31.9],
  ["O=C(COCC1CCCN1S(=O)(=O)c1c(Cl)cc(Cl)cc1Cl)N1CCC(N2CCOCC2)CC1 (stereo not drawn)", 106],
  ["CN1CCC(N2CCN(C(=O)COCC3CCCCN3S(=O)(=O)c3cccc4cccnc34)CC2)CC1 (stereo not drawn) [Example 175, dihydrochloride]", 103],
  ["COc1cc(C)c(S(=O)(=O)N2CCCCC2COCC(=O)N2CCC(c3ccncc3)CC2)c(C)c1 (stereo not drawn)", 103],
  ["O=C(COCC1CCCCN1S(=O)(=O)c1c(Cl)cc(Cl)cc1Cl)NCc1ccc(CN2CCCCC2)cc1 (stereo not drawn)", 104]
]}

* * *

- targetEntity: B1R receptor of the rat (Rattus norvegicus, UniProt P97583)
- Construct: host or cells: CHO K1 cells (Chinese hamster ovary), stably transfected
- Sequence (P97583 whole entry): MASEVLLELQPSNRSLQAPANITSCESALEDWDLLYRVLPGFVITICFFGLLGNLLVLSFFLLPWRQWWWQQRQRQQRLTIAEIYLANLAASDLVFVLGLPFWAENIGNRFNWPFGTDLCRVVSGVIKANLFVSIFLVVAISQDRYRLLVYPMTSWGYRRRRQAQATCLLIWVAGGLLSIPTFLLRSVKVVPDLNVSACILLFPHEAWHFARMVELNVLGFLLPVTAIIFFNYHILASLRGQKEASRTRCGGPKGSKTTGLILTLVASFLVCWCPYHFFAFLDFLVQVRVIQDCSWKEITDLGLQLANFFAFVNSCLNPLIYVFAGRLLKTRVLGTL
- experimentalProtocol: Functional study on the bradykinin receptor 1 (B1R), FLIPR Ca2+ assay, rB1R cells
- Assay type: cell-based
- testSettings: CHO-K1, test substance 10 μM, agonist Des-Arg9-bradykinin 100 nM, % inhibition compared with the maximum achievable inhibition, read-out: B1R Antagonism, rat [10 μM] % Inhibition
- Excerpt: The agonistic or antagonistic action of substances can be quantified on the bradykinin receptor 1 (B1R) of the species human and rat with ectopically expressing cell lines (CHO K1 cells) and with the aid of a Ca^2+-sensitive dye (Fluo-4) using a fluorescent imaging plate reader (FLIPR). […] The agonistic or antagonistic action of substances can be determined on the bradykinin receptor 1 (B1R) of the species human and rat using the following assay. […]
Counter-ions that a name gives are not always drawn.
measurementLabel: inhibition at 10 µM (%)

{"columns": ["compound", "unit", "value"],
 "data": [
  ["O=C(COCC1CCCCN1S(=O)(=O)c1c(Cl)cccc1Cl)N(Cc1ccccc1)c1ccccn1 (stereo not shown)", "%", 101],
  ["COc1cc(C)c(S(=O)(=O)N2CCCC2COCC(=O)N2CCC(c3nc4cc(C)ccc4[nH]3)CC2)c(C)c1 (stereo not shown)", "%", 96.3],
  ["COc1cc(C)c(S(=O)(=O)N2CCCC2COCC(=O)NC(CN2CCOCC2)c2ccccc2)c(C)c1 (stereo not shown)", "%", 93.2],
  ["COc1cc(C)c(S(=O)(=O)N2CCCC[C@@H]2COCC(=O)N2CCN(C3CCN(C)CC3)CC2)c(C)c1 [Example 177, dihydrochloride]", "%", 100],
  ["COc1cc(C)c(S(=O)(=O)N2CCCCC2COCC(=O)N2CCN(c3ccccn3)CC2)c(C)c1 (stereo not shown)", "%", 101],
  ["COc1cc(C)c(S(=O)(=O)N2CC[C@H]2COCC(=O)N2CCN(C3CCN(C)CC3)CC2)c(C)c1", "%", 98.3],
  ["COc1ccc(S(=O)(=O)N2CCCCC2COCC(=O)N2CCN(CCOc3ccccc3)CC2)cc1 (stereo not shown)", "%", 103]
]}

* * *

- targetEntity: B1R receptor of the rat (Rattus norvegicus)
- Construct: host or cells: CHO K1 cells (Chinese hamster ovary), stably transfected
- experimentalProtocol: Functional study on the bradykinin receptor 1 (B1R), FLIPR Ca2+ assay, rB1R cells
- Assay type: cell-based
- testSettings: CHO-K1, test substance 10 μM, agonist Des-Arg9-bradykinin 100 nM, % inhibition compared with the maximum achievable inhibition, read-out: B1R Antagonism, rat [10 μM] % Inhibition
Counter-ions that a name gives are not always drawn.
inhibition at 10 µM values, listed per item

{"columns": ["compound", "unit", "inhibition at 10 µM"],
 "data": [
  ["CN1CCC(N2CCN(C(=O)COCC3CCCCN3S(=O)(=O)c3ccc(Cl)c(Cl)c3)CC2)CC1 (stereo not shown) [Example 32]", "%", 63.3],
  ["COc1cc(C)c(S(=O)(=O)N2CCCCC2COCC(=O)N2CCC(CCN3CCCCC3)CC2)c(C)c1 (stereo not shown) [Example 533]", "%", 108],
  ["COc1cc(C)c(S(=O)(=O)N2CCCC2COCC(=O)N2CCCCC2Cc2ccccn2)c(C)c1 (stereo not shown) [Example 449]", "%", 99.7],
  ["COc1cc(C)c(S(=O)(=O)N2CCCC2COCC(=O)N2CCN(c3cc(Cl)ccc3C)CC2)c(C)c1 (stereo not shown) [Example 311]", "%", 103],
  ["Cc1ccccc1S(=O)(=O)N1CCCCC1COCC(=O)N1CCN(C2CCN(C)CC2)CC1 (stereo not shown) [Example 159, dihydrochloride]", "%", 101],
  ["COc1cc(C)c(S(=O)(=O)N2CCCCC2COCC(=O)N2CCC(N3CCc4cnccc4C3)CC2)c(C)c1 (stereo not shown) [Example 100]", "%", 102],
  ["COc1cc(C)c(S(=O)(=O)N2CCCC2COCC(=O)N2CCN(Cc3c(C)cc(C)cc3C)CC2)c(C)c1 (stereo not shown) [Example 351]", "%", 104]
]}
